Item-by-item account of composite z-score
System: Wnt5a (protein binding on small-molecule microarray)
Test Description: Wnt5a binders on small-molecule microarray, primary screen, biophysical, 635/667 nm fluorescence (AID 1142);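 note: fluorescence read at 667 nm with signal to noise per printed feature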
Study Conditions: 635 nm fluorescence, higher = more signal
Property Label: composite z-score

1) C[N+](C)(C)CCCCNC(=O)[C@H]1C[C@H]2C(=O)NCC(=O)N2[C@H]1c1cccc(OCCO)c1 :: 0.668
2) COc1ccc([Si](C)(C)[C@@H]2[C@@H](CC(=O)N(CCO)Cc3ccccc3)O[C@]3(C(=O)N(Cc4cccc(N5CCC5=O)c4)c4ccccc43)[C@H]2C)cc1 :: 0.0348
3) C=C(C(=O)CC[C@H](OC(=O)c1ccccc1-c1ccccc1C(=O)O)c1ccc(CO)o1)C(C)C :: 0.416
4) CO[C@H]1COC(=O)CC=C[C@H](C)[C@@H](OC)COC(=O)[C@H](Cc2ccccc2)NC(=O)CC=C[C@@H]1C :: -0.359
5) Cc1ccc(S[C@]2(C(=O)NCCCN(C)C)CC(=O)N(C3CCCCC3)[C@@H]2c2ccc(CO)cc2I)cc1 :: -0.056
6) O=C1O[C@@H](c2ccccc2)[C@@H](c2ccccc2)N2[C@@H](c3ccccc3OCCO)[C@]3(C(=O)Nc4ccc(C#CC5=CCCCC5)cc43)[C@@H](C(=O)O)[C@H]12 :: 0.26
7) CC(C)[C@H]1NC(=O)[C@@]23C(=O)N[C@@H](Cc4ccccc4)C2[C@H](C)[C@@]2(C)O[C@H]2C3/C=C/C/C=C\CNC(=O)[C@H](C)NC1=O (stereo not given in full) :: -0.438
8) COCCOC(=O)N1C(=O)[C@@]2(c3cc(C#CCNC(N)=O)ccc31)[C@H](c1ccc(OCCO)cc1)N1[C@H](c3ccccc3)[C@H](c3ccccc3)OC(=O)[C@H]1[C@@H]2C(=O)N1CCCCCCC1 :: 0.148
9) COc1cc(Cc2cc3c(c(CCc4ccccc4)n2)[Si](C(C)C)(C(C)C)OC3)cc(OC)c1OC :: -0.179
10) C[C@]1(C(=O)NCc2ccccc2)c2ccccc2C(=O)N(Cc2cc(C(F)(F)F)cc(C(F)(F)F)c2)[C@H]1c1ccc(CO)cc1 :: 0.944
